Target: CTX-M-15 (Escherichia coli, UniProt Q9EXV5)
Conditions: read-out: IC50 β-lactamase CTX-M-15; class (A); nitrocefin 200 μM, 30-min pre-incubation, enzyme 0.4 nM
# key: entry, value: pIC50
The read-out pIC50 is expressed as -log10 of concentration in moles per litre.

Completed entries (count: 3):
| Compound | Observable | Val |
| --- | --- | --- |
| O=C1N2CC(n3cc(-c4nccs4)nn3)=CC(C2)N1OS(=O)(=O)[O-].[Na+] (stereo not shown) | pIC50 | 9.39 |
| C/C(=N/O)c1cnn(C2=CC3CN(C2)C(=O)N3OS(=O)(=O)[O-])c1.[Na+] (stereo not shown) | pIC50 | 9.25 |
| CN(C)C.NC(=O)CCc1nccn1C1=CC2CN(C1)C(=O)N2OS(=O)(=O)O (stereo not shown) | pIC50 | 8.36 |

Q) Look up pIC50: N#Cc1ccn(C2=CC3CN(C2)C(=O)N3OS(=O)(=O)[O-])n1.[Na+] (stereo not shown)
A) 9.12

----------
Here's a batch of compounds along with measured pIC50 for OXA-11 (Pseudomonas aeruginosa).
The read-out pIC50 is expressed as -log10 of concentration in moles per litre.

Completed entries (count: 3):
| Compound | pIC50 |
| --- | --- |
| O=C(NCCO)c1ccn(C2=CC3CN(C2)C(=O)N3OS(=O)(=O)[O-])n1.[Na+] (stereo not shown) [Example 11] | 7.68 |
| O=C1N2CC(n3ccc([C@H](O)CO)n3)=CC(C2)N1OS(=O)(=O)[O-].[Na+] (stereo partly shown) [Example 76] | 6.59 |
| O=C(NOCCO)c1ccn(C2=CC3CN(C2)C(=O)N3OS(=O)(=O)[O-])n1.[Na+] (stereo not shown) [Example 47] | 7.00 |

Kindly review the next compound as well.
Q) Give the reported pIC50 for NCCc1cnn(C2=CC3CN(C2)C(=O)N3OS(=O)(=O)O)c1 (stereo not shown) [Example 41] (system: OXA-11 (Pseudomonas aeruginosa)).
A) 6.74

----------
Target: OXA-15 (Pseudomonas aeruginosa, UniProt Q51574)
Settings: read-out: IC50 β-lactamase OXA-15; class (D); nitrocefin 200 μM, 30-min pre-incubation, enzyme 0.4 nM
Observable: IC50

| Compound | IC50 |
| --- | --- |
| O=C1N2CC(n3cc(-c4nccs4)nn3)=CC(C2)N1OS(=O)(=O)[O-].[Na+] (stereo not drawn) | 3.4 nM |
| CN(C)C.NC(=O)CCc1nccn1C1=CC2CN(C1)C(=O)N2OS(=O)(=O)O (stereo not drawn) | 270 nM |
| NCc1ccn(C2=CC3CN(C2)C(=O)N3OS(=O)(=O)[O-])n1.O=C(O)C(F)(F)F.[Na+] (stereo not drawn) | 510 nM |
| NC(=O)c1cc(F)n(C2=CC3CN(C2)C(=O)N3OS(=O)(=O)[O-])n1.[Na+] (stereo not drawn) | 170 nM |
| C/C(=N/O)c1cnn(C2=CC3CN(C2)C(=O)N3OS(=O)(=O)[O-])c1.[Na+] (stereo not drawn) | 8.5 nM |
| NCc1cn(C2=CC3CN(C2)C(=O)N3OS(=O)(=O)[O-])nn1.O=C(O)C(F)(F)F.[Na+] (stereo not drawn) | 6.4 nM |
| Cc1cc(C(N)=O)nn1C1=CC2CN(C1)C(=O)N2OS(=O)(=O)[O-].[Na+] (stereo not drawn) | 760 nM |
| NCCONC(=O)c1cnn(C2=CC3CN(C2)C(=O)N3OS(=O)(=O)[O-])c1.O=C(O)C(F)(F)F.[Na+] (stereo not drawn) | 48 nM |
| NC(=O)c1cn(C2=CC3CN(C2)C(=O)N3OS(=O)(=O)[O-])nn1.[Na+] (stereo not drawn) | 9 nM |
| O=C([O-])CCc1cn(C2=CC3CN(C2)C(=O)N3OS(=O)(=O)[O-])nn1.[Na+].[Na+] (stereo not drawn) | 6.7 nM |

Q) Look up IC50: CC(=O)Nc1cnn(C2=CC3CN(C2)C(=O)N3OS(=O)(=O)[O-])c1.[Na+] (stereo not drawn)
A) 290 nM

Q) Look up IC50: O=C(O)C(F)(F)F.O=C1N2CC(n3ccc(CNc4nccs4)n3)=CC(C2)N1OS(=O)(=O)[O-].[Na+] (stereo not drawn)
A) 79 nM

Q) Look up IC50: NCc1cnn(C2=CC3CN(C2)C(=O)N3OS(=O)(=O)[O-])c1.O=C(O)C(F)(F)F.[Na+] (stereo not drawn)
A) 49 nM

Q) Look up IC50: NC(=O)c1nn(C2=CC3CN(C2)C(=O)N3OS(=O)(=O)[O-])cc1F.[Na+] (stereo not drawn)
A) 13 nM

Q) Look up IC50: O=C1N2CC(n3ccc(-c4ncco4)n3)=CC(C2)N1OS(=O)(=O)[O-].[Na+] (stereo not drawn)
A) 24 nM

----------
# key: entry, value: MIC
Test system: E. coli UFR18
Experiment: MIC of compound alone, broth microdilution
Format: cell-based
Settings: Escherichia coli; strain UFR18: E. coli; CTX-M-15, OXA-204; read-out: MIC compounds of the invention alone
Response body: numeric value in µg/mL, unit text excluded.

Completed entries (count: 2):
| Compound | System Name | MIC, µg/mL |
| --- | --- | --- |
| O=C1N2CC(n3ccnn3)=C[C@H](C2)N1OS(=O)(=O)O | E. coli UFR18 | 0.5 |
| O=C1N2CC(n3nccn3)=CC(C2)N1OS(=O)(=O)O (stereo not shown) | E. coli UFR18 | 2 |

Q) Look up MIC: O=C1N2CC(n3cncn3)=CC(C2)N1OS(=O)(=O)[O-].[Na+] (stereo not shown)
A) 2

Q) Look up MIC: O=C1N2CC(n3ccsc3=O)=CC(C2)N1OS(=O)(=O)[O-].[Na+] (stereo not shown)
A) 2

----------
System: K. pneumoniae BAA-1898
Test: MIC of compound alone, broth microdilution
Assay type: cell-based
Conditions: strain BAA-1898; compound alone
# key: entry, value: MIC compounds of the invention alone

Completed entries (count: 10):
| Molecule | MIC compounds of the invention alone |
| --- | --- |
| CC(=O)Nc1ccn(C2=CC3CN(C2)C(=O)N3OS(=O)(=O)O)n1.CCN(CC)CC (stereo not drawn) [Example 33] | 32 µg/mL |
| NC(=O)c1cc(F)n(C2=CC3CN(C2)C(=O)N3OS(=O)(=O)[O-])n1.[Na+] (stereo not drawn) [Example 30] | >32 µg/mL |
| NC(=O)c1cn(C2=CC3CN(C2)C(=O)N3OS(=O)(=O)[O-])nn1.[Na+] (stereo not drawn) [Example 56] | 32 µg/mL |
| O=C1N2CC(n3ccc(-c4ncco4)n3)=CC(C2)N1OS(=O)(=O)[O-].[Na+] (stereo not drawn) [Example 78] | >32 µg/mL |
| NCCONC(=O)c1cnn(C2=CC3CN(C2)C(=O)N3OS(=O)(=O)[O-])c1.O=C(O)C(F)(F)F.[Na+] (stereo not drawn) [Example 24] | >32 µg/mL |
| O=C1N2CC(n3cc(-c4nccs4)nn3)=CC(C2)N1OS(=O)(=O)[O-].[Na+] (stereo not drawn) [Example 55] | >32 µg/mL |
| C/C(=N/O)c1cnn(C2=CC3CN(C2)C(=O)N3OS(=O)(=O)[O-])c1.[Na+] (stereo not drawn) [Example 39] | >32 µg/mL |
| NCCNC(=O)Cc1ccn(C2=CC3CN(C2)C(=O)N3OS(=O)(=O)[O-])n1.O=C(O)C(F)(F)F.[Na+] (stereo not drawn) [Example 48] | >32 µg/mL |
| CC(=O)Nc1cnn(C2=CC3CN(C2)C(=O)N3OS(=O)(=O)[O-])c1.[Na+] (stereo not drawn) [Example 21] | >32 µg/mL |
| N#Cc1ccn(C2=CC3CN(C2)C(=O)N3OS(=O)(=O)[O-])n1.[Na+] (stereo not drawn) [Example 17] | 16 µg/mL |

Q) Look up MIC compounds of the invention alone: O=C([O-])CCc1cn(C2=CC3CN(C2)C(=O)N3OS(=O)(=O)[O-])nn1.[Na+].[Na+] (stereo not drawn) [Example 65]
A) 32 µg/mL

Q) Look up MIC compounds of the invention alone: O=C([O-])Cc1cn(C2=CC3CN(C2)C(=O)N3OS(=O)(=O)[O-])nn1.[Na+].[Na+] (stereo not drawn) [Example 61]
A) >32 µg/mL

----------
Tested on: K. oxytoca UFR21
Assay: MIC of ceftazidime (CAZ) at fixed concentration of compound (synergy), broth microdilution
Type: cell-based
Details: MIC of ceftazidime with compound fixed at 4 μg/mL; strain UFR21 (K. oxytoca)
Observable: MIC combination of CAZ and compounds of the invention at 4 μg/mL
Would you mind answering with just the numeric figure?

| Compound | Val |
| --- | --- |
| O=C1N2CC(n3cccn3)=CC(C2)N1OC(F)(F)C(=O)[O-].[Li+] (centres unmarked) | 4 |
| O=C1N2CC(n3ccsc3=O)=CC(C2)N1OS(=O)(=O)[O-].[Na+] (centres unmarked) | 0.5 |

Kindly review the next compound as well.
Q) Look up MIC combination of CAZ and compounds of the invention at 4 μg/mL: O=C1N2CC(n3nccn3)=CC(C2)N1OS(=O)(=O)O (centres unmarked)
A) 0.5
